Experiment: log P by HPLC
Assay type: physicochemical
Condition Label: HPLC, gradient method, acetonitrile/0.1% aqueous phosphoric acid; EEC directive 79/831 Annex V. A8
Cut-off 3 on logP, inclusive. At or above means class 1; below means class 0.

Query :: Dear colleague, could you confirm whether CN(C)CCN(C)c1c(-c2ccc(F)cc2F)c(Cl)nc2nc(C(F)(F)F)nn12 [compound 538] has logP at or above 3?
Result :: class 0

Query :: Same lookup for CCN(CC)c1c(-c2ccc(F)cc2F)c(Cl)nc2nc(C3CC3)nn12 [compound 597] , please.
Result :: class 1

Query :: Further, for CCCN(CC1CC1)c1c(-c2ccccc2Cl)c(Cl)nc2nc(C)nn12 [compound 243] ?
Result :: class 1

Query :: Note, next up: Cc1nc2nc(Cl)c(-c3ccc(F)cc3F)c(NC3CC3)n2n1 [compound 199]
Result :: class 0

Query :: Next up: CCCN(CCCN)c1c(-c2ccc(F)cc2F)c(Cl)nc2nc(C3CC3)nn12 [compound 726]
Result :: class 0

Query :: Would you mind doing C=C(C)CNc1c(-c2ccc(F)cc2F)c(Cl)nc2nc(C)nn12 [compound 201] as well?
Result :: class 0

---

Experiment: log P by HPLC
Format: physicochemical
Condition Label: EEC directive 79/831 Annex V. A8 by HPLC (gradient method, acetonitrile/0.1% aqueous phosphoric acid)
The label True is reserved for logP strictly under 3; False covers values equal to or above it.

>  <Molecule>
Cc1nc2nc(Cl)c(-c3ccc(F)cc3F)c(NCC(F)(F)F)n2n1

>  <Assigned Class>
True

$$$$
>  <Molecule>
Cc1nc2nc(Cl)c(-c3ccc(F)cc3F)c(N3CCC(C(F)(F)F)CC3)n2n1

>  <Assigned Class>
False

$$$$
>  <Molecule>
COC(=O)C1CCCCN1c1c(-c2ccc(F)cc2F)c(Cl)nc2nc(C)nn12 (centres unmarked)

>  <Assigned Class>
False

$$$$
>  <Molecule>
CCC(C)Nc1c(-c2c(F)cccc2Cl)c(Cl)nc2nc(C3CC3)nn12 (centres unmarked)

>  <Assigned Class>
False

$$$$
>  <Molecule>
Cc1nc2nc(Cl)c(-c3c(F)cccc3Cl)c(N3CCC(O)C3)n2n1 (centres unmarked)

>  <Assigned Class>
True

$$$$

Query :: Does the reported logP of `CC(C)Nc1c(-c2c(F)cc(F)cc2F)c(Cl)nc2nc(C3CC3)nn12` stay below 3?
Result :: False

Query :: `CCCN(CC1CC1)c1c(-c2c(F)cccc2F)c(Cl)nc2nc(C)nn12` , same question.
Result :: False

---

Experiment: log P by HPLC
Format: physicochemical
Condition Label: EEC directive 79/831 Annex V. A8 by HPLC (gradient method, acetonitrile/0.1% aqueous phosphoric acid)
Measured Quantity: logP
# respond with the number and nothing more

Query :: Reported logP, compound `CC(C)CN(C)c1c(-c2c(F)cc(F)cc2F)c(Cl)nc2nc(C3CC3)nn12` : ____
Result :: 4.36

Query :: Moving on to `Cc1nc2nc(Cl)c(-c3ccccc3F)c(NC(C)C)n2n1`
Result :: 2.63

Query :: Likewise for CC(=O)NC1CCN(c2c(-c3ccc(F)cc3F)c(Cl)nc3nc(C)nn23)C1 (centres unmarked) ?
Result :: 1.73

Query :: What do you get for `CCN(Cc1ccco1)c1c(-c2c(F)cccc2F)c(Cl)nc2nc(C)nn12` ?
Result :: 3.28

Query :: Same read-out for `CCC1=CCN(c2c(-c3ccc(F)cc3F)c(Cl)nc3nc(C4CC4)nn23)CC1` ?
Result :: 4.59

---

# Lookup of reported logP keyed by entry
Experiment: log P by HPLC
Assay type: physicochemical
Condition Label: HPLC, gradient method, acetonitrile/0.1% aqueous phosphoric acid; EEC directive 79/831 Annex V. A8
Hey, just send me the number, nothing else.

Recorded results for 2 compounds are shown here.
>  <Compound>
Cc1nc2nc(Cl)c(-c3c(F)cccc3F)c(NC3CC3)n2n1

>  <logP>
2.28

$$$$
>  <Compound>
CC(C)Nc1c(-c2c(F)cccc2F)c(Cl)nc2nc(C3CC3)nn12

>  <logP>
3.14

$$$$

Query :: Fill blank: measured logP of the compound `CC(=O)NC1CCN(c2c(-c3ccc(F)cc3F)c(Cl)nc3nc(C(F)(F)F)nn23)CC1` is ____.
Result :: 2.71

Query :: Thanks! And Cc1nc2nc(Cl)c(-c3c(F)cccc3F)c(NC(C)C(F)(F)F)n2n1 (stereo not shown) ?
Result :: 2.78

---

Experiment: log P by HPLC
Type: physicochemical
Condition Label: EEC directive 79/831 Annex V. A8 by HPLC (gradient method, acetonitrile/0.1% aqueous phosphoric acid)
Measured Quantity: logP

Example entries begin here.
>  <Compound>
Fc1cc(F)c(-c2c(Cl)nc3nc(C4CC4)nn3c2N2CCCCC2)c(F)c1

>  <logP>
4.22

$$$$
>  <Compound>
CC(C)(C)OC(=O)NC1CCN(c2c(-c3ccc(F)cc3F)c(Cl)nc3nc(C4CC4)nn23)CC1

>  <logP>
3.78

$$$$
>  <Compound>
Fc1cc(F)c(-c2c(Cl)nc3nc(C4CC4)nn3c2N2CCOCC2)c(F)c1

>  <logP>
3.02

$$$$

Query :: So what's the measured logP for this one? `Cc1nc2nc(Cl)c(-c3c(F)cccc3F)c(N3CCC(C)CC3)n2n1`
Result :: 3.64

Query :: Could you do the same for `C=C(C)CN(CC)c1c(-c2c(F)cccc2F)c(Cl)nc2nc(C)nn12` , please?
Result :: 3.65

Query :: Consider next the compound `Cc1nc2nc(Cl)c(-c3ccc(F)cc3F)c(N3CCCCC3)n2n1` in the same way.
Result :: 3.32

Query :: Next compound up: `Cc1nc2nc(Cl)c(-c3ccc(F)cc3F)c(N3CCC(C)CC3)n2n1`
Result :: 3.75

Query :: Repeat for the following compound: `Cc1nc2nc(Cl)c(-c3c(F)cccc3F)c(NOCc3ccc(F)cc3)n2n1`
Result :: 2.9

Query :: Same question, `Cc1nc2nc(Cl)c(-c3ccccc3F)c(NCC(F)(F)F)n2n1` this time
Result :: 2.53

Query :: Same again, this time with `Cc1nc2nc(Cl)c(-c3ccccc3F)c(NOCC(C)C)n2n1`
Result :: 2.98

Query :: Entry to check: `CC(=O)C1CCN(c2c(-c3c(F)cccc3F)c(Cl)nc3nc(C)nn23)CC1`
Result :: 2.49

Query :: Then what about the compound `Cc1nc2nc(Cl)c(-c3ccccc3Cl)c(NCC#N)n2n1` ?
Result :: 2.03

---

Experiment: log P by HPLC
Assay type: physicochemical
Condition Label: EEC directive 79/831 Annex V. A8 by HPLC (gradient method, acetonitrile/0.1% aqueous phosphoric acid)
Measured Quantity: logP
// print number alone

# example entries with known answers
>  <Molecule>
Cc1nc2nc(Cl)c(-c3ccccc3F)c(N3CC(C)OC(C)C3)n2n1 (stereo not drawn)

>  <logP>
2.8

$$$$
>  <Molecule>
Cc1nc2nc(Cl)c(-c3ccc(F)cc3F)c(N3CCSCC3)n2n1

>  <logP>
2.97

$$$$
>  <Molecule>
Cc1nc2nc(Cl)c(-c3c(F)cccc3Cl)c(NCC(F)(F)F)n2n1

>  <logP>
2.77

$$$$
>  <Molecule>
Cc1nc2nc(Cl)c(-c3c(F)cccc3F)c(NCC(F)(F)F)n2n1

>  <logP>
2.56

$$$$
>  <Molecule>
CC(C)(C)CNc1c(-c2c(F)cccc2Cl)c(Cl)nc2nc(C3CC3)nn12

>  <logP>
4.08

$$$$

Query :: Recorded logP of Cc1nc2nc(Cl)c(-c3ccc(F)cc3F)c(N3CCC(O)C3)n2n1 (stereo not drawn) , please.
Result :: 1.95

Query :: Next molecule up: `CC(C)CNc1c(-c2c(F)cc(F)cc2F)c(Cl)nc2nc(C3CC3)nn12`
Result :: 3.69

Query :: Here is the next molecule: CCC(C)Nc1c(-c2ccccc2Cl)c(Cl)nc2nc(C3CC3)nn12 (stereo not drawn)
Result :: 3.76

Query :: Same question, Cc1nc2nc(Cl)c(-c3ccc(F)cc3F)c(N3CCCC3C)n2n1 (stereo not drawn) this time
Result :: 3.14

Query :: Now the molecule `Cc1nc2nc(Cl)c(-c3c(F)cccc3F)c(N3CCc4ccccc4C3)n2n1`
Result :: 3.22

Query :: Another molecule to look at: `C=C(C)CN(CC)c1c(-c2c(F)cc(F)cc2F)c(Cl)nc2nc(C3CC3)nn12`
Result :: 4.49

Query :: Similarly, `Cc1nc2nc(Cl)c(-c3ccc(F)cc3F)c(N3CCc4ccccc4C3)n2n1` ?
Result :: 3.28

Query :: Try this molecule too: CC(=O)NC1CCN(c2c(-c3c(F)cccc3F)c(Cl)nc3nc(C)nn23)C1 (stereo not drawn)
Result :: 1.64

Query :: Another molecule to check: CN(CC1CC1(Cl)Cl)c1c(-c2ccc(F)cc2F)c(Cl)nc2nc(C3CC3)nn12 (stereo not drawn)
Result :: 4.18

Query :: Do the same for Cc1nc2nc(Cl)c(-c3ccc(F)cc3F)c(N3CCCC(C)C3)n2n1 (stereo not drawn) please
Result :: 3.74

Query :: Now consider `C=C(C)CNc1c(-c2c(F)cc(F)cc2F)c(Cl)nc2nc(C3CC3)nn12` .
Result :: 3.34

Query :: Also check `C=C(C)CNc1c(-c2ccccc2Cl)c(Cl)nc2nc(C3CC3)nn12`
Result :: 3.41

Query :: Now the molecule `Cc1nc2nc(Cl)c(-c3c(F)cccc3Cl)c(N(C)CC(C)C)n2n1`
Result :: 3.68

Taken from patent US7186831B2.
